Biological target: T1, ECF22_1147
T1 chain: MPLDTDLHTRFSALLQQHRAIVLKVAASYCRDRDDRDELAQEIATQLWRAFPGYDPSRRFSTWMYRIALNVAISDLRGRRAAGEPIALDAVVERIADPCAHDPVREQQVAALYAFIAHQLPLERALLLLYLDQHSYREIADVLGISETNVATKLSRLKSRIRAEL
endpoint: fold repression
Give bare numbers.

Here are 4 binders together with their reported answers.
{"binder": "AS16_3622 (protein) MMKTDELISLLATAEGPVDRHALARRLGLALLAGLLGALLLTVALYGVRSDLAEVARTPLFWAKVALPTSLALLGLWLTQRLARPGVRGGALWGLLGVPLLLVWLGAAISLFGAPPEARADLIFGRTWRTCALNITLLSTPVFIAVFWALRGLAPTRLRQAGAAGGLLAGSTATLVYCLHCPEMGVPFWGLWYLLGMLVPTLLGAVLGPRLLRW", "endpoint": "fold repression", "number": 8.27}
{"binder": "AS27_1331 (protein) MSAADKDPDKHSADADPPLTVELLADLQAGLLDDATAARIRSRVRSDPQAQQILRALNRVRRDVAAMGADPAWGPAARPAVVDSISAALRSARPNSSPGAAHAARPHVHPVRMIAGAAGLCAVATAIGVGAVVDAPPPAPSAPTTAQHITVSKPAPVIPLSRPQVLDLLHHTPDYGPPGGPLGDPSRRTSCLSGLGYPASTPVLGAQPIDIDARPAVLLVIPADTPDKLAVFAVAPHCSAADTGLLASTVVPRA", "endpoint": "fold repression", "number": 2.2}
{"binder": "AS04_1609 (protein) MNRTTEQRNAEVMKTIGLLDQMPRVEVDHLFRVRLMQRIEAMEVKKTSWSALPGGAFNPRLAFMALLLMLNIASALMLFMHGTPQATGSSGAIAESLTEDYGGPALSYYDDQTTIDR", "endpoint": "fold repression", "number": 5.37}
{"binder": "AS14_1324 (protein) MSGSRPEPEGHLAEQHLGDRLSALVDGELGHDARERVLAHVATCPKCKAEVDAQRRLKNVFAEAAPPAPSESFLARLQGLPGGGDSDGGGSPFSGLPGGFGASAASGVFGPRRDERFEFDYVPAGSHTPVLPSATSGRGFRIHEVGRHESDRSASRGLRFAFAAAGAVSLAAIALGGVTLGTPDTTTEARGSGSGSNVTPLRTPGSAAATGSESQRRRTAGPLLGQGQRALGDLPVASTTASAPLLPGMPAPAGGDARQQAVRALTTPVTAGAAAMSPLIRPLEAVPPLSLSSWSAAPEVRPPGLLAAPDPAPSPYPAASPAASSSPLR", "endpoint": "fold repression", "number": 8}

# next binder below
Enquiry: Give the measured fold repression of AS11_987 (protein) MNKHPDNNLLEAYASGSIDAVSGLVVATHLETCSKCRAYVNQVEASQANTVSESPSEYSPEFDDMLNDIINAEPVNDNVVIQDTAFVNVAGKSFELPKTLVRFSDLVGSWRSYGGKVFSAQIDLGEDARVSLMYIGENVQIPQHTHRGLESTLVLHGGFSDEDGQYEEGDLMVRDASVKHSPFTQEGEDCLCLTVLTEPMIFTQGVARIFNLFGKGLYP .
Return: 2.64

Each recorded value in this set is attributed to paper PMC3817407.
